As an illustration, consider measured AC50 for compounds on Histamine H3 receptor (Homo sapiens, UniProt Q9Y5N1).
Sequence (Q9Y5N1 whole entry): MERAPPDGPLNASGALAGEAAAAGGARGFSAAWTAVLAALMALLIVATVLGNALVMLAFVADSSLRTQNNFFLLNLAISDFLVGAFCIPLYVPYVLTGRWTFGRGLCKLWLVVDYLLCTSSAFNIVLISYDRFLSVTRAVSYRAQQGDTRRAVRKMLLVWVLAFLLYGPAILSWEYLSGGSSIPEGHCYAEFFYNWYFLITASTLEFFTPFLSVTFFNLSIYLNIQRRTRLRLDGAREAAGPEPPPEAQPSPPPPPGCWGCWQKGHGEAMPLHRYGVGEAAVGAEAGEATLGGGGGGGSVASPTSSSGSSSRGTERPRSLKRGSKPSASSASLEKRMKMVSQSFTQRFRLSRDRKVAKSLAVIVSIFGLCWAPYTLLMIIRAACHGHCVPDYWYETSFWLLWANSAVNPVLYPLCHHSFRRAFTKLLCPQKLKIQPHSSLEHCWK

[[record]]
query_smiles = "O=c1[nH]cc(F)c(=O)[nH]1"
measured_value = "> 30 µM"

[[record]]
query_smiles = "O=C1Nc2ccccc2C1(c1ccc(O)cc1)c1ccc(O)cc1"
measured_value = "> 30 µM"

[[record]]
query_smiles = "NC(=O)C1(N2CCCCC2)CCN(CCCN2c3ccccc3CCc3ccccc32)CC1"
measured_value = "11.7 µM"


Hi! Can you tell me AC50 for each of these compounds?
1. NC(=O)C1(N2CCCCC2)CCN(CCCC(=O)c2ccc(F)cc2)CC1
2. C[C@@H]1CN(c2c(F)c(N)c3c(=O)c(C(=O)O)cn(C4CC4)c3c2F)C[C@H](C)N1
3. Cn1c(CCCC(=O)O)nc2cc(N(CCCl)CCCl)ccc21
4. C[C@H]1C[C@H]2[C@@H]3CCC4=CC(=O)C=C[C@]4(C)[C@@]3(F)[C@@H](O)C[C@]2(C)[C@@]1(O)C(=O)CO
5. CC#CC(=O)N1CCC[C@H]1c1nc(-c2ccc(C(=O)Nc3ccccn3)cc2)c2c(N)nccn12

[out]
21.7 µM
> 30 µM
> 30 µM
> 30 µM
> 30 µM

* * *

Kindly state AC50 for each of the entries shown.
# TESTED TARGET: UniProt:P08908
# Sequence (P08908 whole entry): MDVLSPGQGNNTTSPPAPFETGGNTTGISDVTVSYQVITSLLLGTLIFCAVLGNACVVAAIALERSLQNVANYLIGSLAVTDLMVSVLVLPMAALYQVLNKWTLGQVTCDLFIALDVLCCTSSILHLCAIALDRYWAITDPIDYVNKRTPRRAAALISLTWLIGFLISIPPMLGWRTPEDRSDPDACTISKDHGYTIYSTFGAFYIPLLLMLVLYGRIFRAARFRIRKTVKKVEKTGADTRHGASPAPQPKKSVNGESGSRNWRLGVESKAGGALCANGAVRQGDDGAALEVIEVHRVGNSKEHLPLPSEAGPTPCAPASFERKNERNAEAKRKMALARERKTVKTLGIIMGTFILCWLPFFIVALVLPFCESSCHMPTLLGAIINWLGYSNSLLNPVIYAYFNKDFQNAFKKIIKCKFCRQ
# Format: functional, cell-based

[[record]]
molecule = "O=C(O)COC(=O)Cc1ccccc1Nc1c(Cl)cccc1Cl"
measured_value = "> 10 µM"

[[record]]
molecule = "COc1ccc(-c2cc(=S)ss2)cc1"
measured_value = "> 30 µM"

[[record]]
molecule = "CCOc1ccccc1OCCN[C@H](C)Cc1ccc(OC)c(S(N)(=O)=O)c1"
measured_value = "0.02 µM"

[[record]]
molecule = "CCN(CC)C(C)C(=O)c1ccccc1 (stereo not given)"
measured_value = "> 10 µM"


Here's the next entry for you.
Recorded result, `C[C@]12C=CC(=O)C=C1CC[C@@H]1[C@@H]2[C@@H](O)C[C@@]2(C)[C@H]1CC[C@]2(O)C(=O)CO` , AC50: > 10 µM

* * *

# TESTED TARGET: 3',5'-cyclic-AMP phosphodiesterase 4A (Homo sapiens, UniProt P27815); further: assay procedure not described here
# Sequence (P27815 whole entry): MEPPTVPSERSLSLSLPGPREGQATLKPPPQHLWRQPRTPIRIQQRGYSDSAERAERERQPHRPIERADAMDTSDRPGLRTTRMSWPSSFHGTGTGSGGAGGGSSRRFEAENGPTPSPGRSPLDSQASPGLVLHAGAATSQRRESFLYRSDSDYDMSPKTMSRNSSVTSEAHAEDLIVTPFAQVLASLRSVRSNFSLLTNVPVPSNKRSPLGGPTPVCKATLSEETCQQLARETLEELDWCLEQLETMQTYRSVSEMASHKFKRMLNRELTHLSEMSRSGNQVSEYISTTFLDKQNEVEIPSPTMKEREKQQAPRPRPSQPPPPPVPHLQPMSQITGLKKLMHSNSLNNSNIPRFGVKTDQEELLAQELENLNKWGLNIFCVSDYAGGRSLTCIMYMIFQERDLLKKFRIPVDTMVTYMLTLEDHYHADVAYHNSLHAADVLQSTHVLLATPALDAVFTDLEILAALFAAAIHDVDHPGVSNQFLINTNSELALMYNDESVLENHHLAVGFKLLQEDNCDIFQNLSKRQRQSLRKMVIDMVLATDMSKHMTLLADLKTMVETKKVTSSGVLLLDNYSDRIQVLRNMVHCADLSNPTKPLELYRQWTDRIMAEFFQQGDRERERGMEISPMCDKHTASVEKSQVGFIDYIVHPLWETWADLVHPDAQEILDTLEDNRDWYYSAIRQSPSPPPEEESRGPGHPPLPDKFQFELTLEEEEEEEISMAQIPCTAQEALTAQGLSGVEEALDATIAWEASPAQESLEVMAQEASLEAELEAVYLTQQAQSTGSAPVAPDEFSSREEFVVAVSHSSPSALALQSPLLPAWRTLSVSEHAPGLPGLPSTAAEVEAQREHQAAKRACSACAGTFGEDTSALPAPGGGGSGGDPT
# Assay type: functional
READOUT: AC50

The following compounds have reported results that may help.
[[record]]
compound = "C[C@H]1C[C@H]2[C@@H]3CCC4=CC(=O)C=C[C@]4(C)[C@@]3(F)[C@@H](O)C[C@]2(C)[C@@]1(O)C(=O)CO"
tested_target = "3',5'-cyclic-AMP phosphodiesterase 4A (Homo sapiens, UniProt P27815)"
readout = "AC50"
measured_value = "> 30 µM"

[[record]]
compound = "Cc1cn(-c2cc(NC(=O)c3ccc(C)c(Nc4nccc(-c5cnccn5)n4)c3)cc(C(F)(F)F)c2)cn1"
tested_target = "3',5'-cyclic-AMP phosphodiesterase 4A (Homo sapiens, UniProt P27815)"
readout = "AC50"
measured_value = "> 30 µM"

[[record]]
compound = "CC(=O)O[C@]1(C(C)=O)CC[C@H]2[C@@H]3CCC4=CC(=O)CCC4=C3[C@@H](c3ccc(N(C)C)cc3)C[C@@]21C [ULIPRISTAL ACETATE]"
tested_target = "3',5'-cyclic-AMP phosphodiesterase 4A (Homo sapiens, UniProt P27815)"
readout = "AC50"
measured_value = "> 30 µM"


Hi! Can you tell me AC50 for each of these compounds?
1. O=C(O)[C@@H](S)[C@@H](S)C(=O)O
2. CC(O)(CC(=O)O)CC(=O)O
3. N=C(N)NC(=O)c1nc(Cl)c(N)nc1N [AMILORIDE]
4. OCc1ccccc1
5. NC(=O)C1(N2CCCCC2)CCN(CCCC(=O)c2ccc(F)cc2)CC1

[out]
["> 30 µM", "> 30 µM", "> 30 µM", "> 30 µM", "> 30 µM"]

Recorded result, `N[C@@H](Cc1ccc(O)cc1)C(=O)O` , AC50: > 30 µM
